Origin of values: PubChem BioAssay (NCI)

Test system: MALME-3M melanoma
MEASUREMENT NOTES: NCI-60 one-dose screen, 48 h (100 = growth as untreated, 0 = no growth, -100 = all killed)
MEASUREMENT CONDITIONS: 10 µM unless noted
Compounds without any hit were thinned out: in the full panel of roughly 83,000, 20% have a hit.
MEASURED PROPERTY: growth (%)
Your answer should be a plain number; it is taken to be in %.

Worked examples follow.
O=c1[nH]c2cc(Cl)ccc2n1C1CCN(c2ccc3nnc(Cl)n3n2)CC1 | 104
CNC(=O)c1cc(Oc2ccc3nc(NC(=O)c4cccc(C(F)(F)F)c4)sc3c2)ccn1 | 97.2
COc1ccc2oc3c4[nH]c5ccccc5c4c4c(c3c2c1)C(=O)N(O)C4=O | 105

growth for Cc1ccc(-n2cc(/C=C/C(=O)c3ccc(S(C)(=O)=O)cc3)c(-c3ccc(S(C)(=O)=O)cc3)n2)cc1 is 50.3

// sample CCN1CCN(c2cc(C(=O)Nc3nc4ccc(Oc5ccnc(C(=O)NC)c5)cc4s3)cc(C(F)(F)F)c2)CC1 , its growth was 75.7

###

Test system: SF-539 CNS
MEASUREMENT NOTES: NCI-60 one-dose screen, 48 h
MEASUREMENT CONDITIONS: 10 µM unless noted
About 83,000 compounds went through this panel and 20% of them were active in at least one assay; those are over-represented in the sample as a whole. Activity calls are given as the source filed them. Rule for the calls: active = growth percent below 10; inactive = the rest.
API: response.call in t for active, f for inactive

Observe how each entry below is paired with its result.
COc1cc(C2CC(c3ccc(Nc4nc(NCCO)nc(Nc5ccc(Cl)cc5)n4)cc3)=Nc3c(N)nc(N)nc3N2)cc(OC)c1OC (stereo not drawn) | f
CN1CCN(c2ccc(NC(=O)Nc3ccc4c(ccn4-c4cccc(C(N)=O)n4)c3)cc2C(F)(F)F)CC1 | t
COc1ccc(S(=O)(=O)NCCCNc2nccc(-n3cnc4ccccc43)n2)cc1 | f
O=C(NCCCNc1cc(-c2cn(-c3ccccc3)nc2-c2cccc(O)c2)ccn1)Nc1ccc(F)cc1 | t
COc1cc2oc(-c3cccc(NC(=O)c4cc(NC(=O)[C@H](C)N)ccc4Cl)c3)cc(=O)c2c(OC)c1OC | f

Call for entry NC(=O)N1N=C(c2cc3ccccc3oc2=O)CC1c1cn(-c2ccccc2)nc1-c1ccc(Cl)cc1 (stereo not drawn) : f

Which outcome was assigned to CCN1C(=O)N(CC)C2SC(N/N=C/c3ccc(F)cc3)=NC21 (stereo not drawn) in this test? t

Look up the recorded call for Cc1ccc(NC(=O)N[C@@H](Cc2cc(F)cc(F)c2)C(=O)NC2C(=O)N3CCC[C@H]3C(=O)N3CCCC[C@H]3C(=O)N[C@@H](C)C(=O)N3C[C@H](C)C[C@H]3C(=O)O[C@H]2C)c(F)c1 (stereo partly drawn) in this test. f

Just curious, what result did COc1ccc(-c2nc(SCCC(C)C)nc(N/N=C\c3ccc(O)cc3)c2C#N)cc1 get here? f

Can you look up the reported call for COc1cc(/C=N/n2cnc3oc(-c4ccccc4)cc3c2=N)cc(CN2CCOCC2)c1O for me? f

Hi team, can someone confirm the assay call for Cn1ccnc1C(=O)/C=C/c1ccc(C(=O)Nc2ccc(NC(=O)CCNC(=O)c3csc(Br)n3)cc2)cc1 ? t

Entry Cn1c(SC(C(=O)Nc2ccc(F)cc2)c2ccccc2)nc2ccccc2c1=O (stereo not drawn) : call = ? f

For C=C1C(=O)O[C@@H]2C[C@@H](C)/C=C\C(=O)[C@](C)(OC(C)=O)C[C@H](OC(=O)/C(C)=C\C)[C@@H]12 , what call appears in the results of this test? t

###

Reported growth values are given for each entry in this list.
System: SF-295 CNS
MEASUREMENT NOTES: NCI-60 one-dose screen, 48 h (100 = growth as untreated, 0 = no growth, -100 = all killed)
MEASUREMENT CONDITIONS: 10 µM unless noted
The panel holds about 83,000 compounds, 20% with a hit somewhere; the sample as a whole holds those more often. The source made the active and inactive calls. How the source made its calls: active means growth percent below 10; inactive means the rest.

O=C(Nc1cc(F)cc2cccnc12)c1cnc(N2CCOCC2)cn1 | 97.4% (inactive)
CC(=O)Nc1ccc(C)c(Nc2cc(-c3ccc(-n4cccn4)cc3)[nH]n2)c1 | 46.1% (inactive)

Item: COc1ccc([C@H]2[C@H](O)C(=O)N2c2cc(OC)c(OC)c(OC)c2)cc1 | growth: 14.1% (inactive)

Lab note: COc1cc([C@H]2OC[C@H]3[C@@H]2CO[C@@H]3c2ccc(O)c(OC)c2)ccc1O gave growth of 108% (inactive)

###

System: SF-295 CNS
MEASUREMENT NOTES: NCI-60 one-dose screen, 48 h
MEASUREMENT CONDITIONS: 10 µM unless noted
This is part of a sample that, as a whole, favours compounds with a hit. Of some 83,000 tested, about 20% had one in any assay. Activity calls are given as the source filed them. The calls were made as follows: active = growth percent below 10; inactive = the rest.
Reply using exactly one outcome from t (active), f (inactive)

Oc1ccccc1-c1nnc(SCc2ccc(O)c3ncccc23)n1-c1ccccc1 | t
CN(c1ccc(F)cc1)S(=O)(=O)c1ccc(-c2cnc(C3CC3)o2)cc1 | t
COc1cc2cc(Oc3ccc(NC(=O)c4cccc(C(F)(F)F)c4)cc3)c(C)nc2cc1OCCN(C)C | t

Lab log entry: CN1CCN(Cc2ccc(NC(=O)c3cncc(C#Cc4cnc5ccc(O[C@H]6CCOC6)nn45)c3)cc2C(F)(F)F)CC1 — outcome as called in the assay? t

Per the records of this test, what outcome belongs to COc1cc(CNC(=O)/C=C/c2ccccc2)ccc1OCC(=O)NO ? f

What call does the record list for COc1cc2c3c(n(CCCN4CCCC4)c(=O)c2cc1OC)-c1cc2c(cc1C3=O)OCO2 ? f

Per the records of this test, what outcome belongs to Cc1csc(Nc2cccc(Nc3nc(C)cs3)c2)n1 ? f

Any idea what this test logged for Cn1c2ccccc2c2c3c(c4c5ccc(Br)cc5oc4c21)C(=O)N(O)C3=O ? f

Could you kindly confirm the outcome this assay logged for COc1cc(O)c2c(c1)/C=C/C[C@H](O)[C@H](O)C(=O)/C=C\C[C@H](C)OC2=O ? f

Any idea what this test logged for C#CCOc1ccc(/C=N/Nc2nc(-c3cc4cc(Br)cc(Br)c4oc3=O)cs2)cc1 ? f

Each compound tested received a call. Report the one for O=S(=O)(Nc1cc(Cl)cc(Cl)c1)c1ccc(-c2cnc(C3CC3)o2)cc1 . f

For CC1(C)CC[C@]2(C(=O)O)CC[C@]3(C)C(=CCC4[C@@]5(C)C[C@@H](O)[C@@H]6OC(c7ccccc7O)OC[C@@]6(C)C5CC[C@]43C)C2C1 (stereo partly specified) , which call appears in the assay record? f

How did this test come out for Nc1nc(N)c2c(n1)NC(c1ccccc1)CC(c1ccc(Nc3nc(NCCO)nc(Nc4ccc(Cl)cc4)n3)cc1)=N2 (stereo unspecified) ? f

// return assay outcome for CCOC(=O)c1c(Nc2ccccc2)nn2c(-c3ccc(Br)cc3)ccnc12 f

Each compound tested received a call. Report the one for O=C(Nc1ccccc1)Nc1nc2ccc([N+](=O)[O-])cc2s1 . t

Can you look up the reported call for Cc1ccccc1NC1CC(=O)N(c2ccc(Cl)cc2Cl)C1=O (stereo unspecified) for me? f

###

System: UACC-62 melanoma
MEASUREMENT NOTES: NCI-60 one-dose screen, 48 h (100 = growth as untreated, 0 = no growth, -100 = all killed)
MEASUREMENT CONDITIONS: 10 µM unless noted
Description: Growth inhibition of the UACC-62 human tumor cell line is measured as a screen for anti-cancer activity. Cells are grown in 96 well plates and exposed to the test compound for 48 hours. Compounds are tested at a single concentration, which is 10^-5 M for most compounds. The reported endpoint is percent growth (GI% or GIPRCNT), where numbers from 0 - 100% represent growth inhibition, and numbers from -100% - 0 represent cell death. For example, a value of 40 represents 60% growth inhibition. […]
The panel holds about 83,000 compounds, 20% with a hit somewhere; the sample as a whole holds those more often.
MEASURED PROPERTY: growth (%)
Kindly answer with a numeric value in %, unit omitted.

Cc1cccc(NC(c2cc3cccc4ccc5cccc2c5c43)c2nnnn2C(C)(C)C)c1C (centres undefined) | 62.3

Looking up COc1ccc([C@@H]2[C@@H](O)C(=O)N2c2cc(OC)c(OC)c(OC)c2)cc1 , I see its growth listed as 20.3

Reported growth for O=S(=O)(Nc1ccc(C2CC2)cc1)c1ccc(-c2cnc(C3CC3)o2)cc1 was 48.5

Briefly, growth measured for COC[C@]12CC[C@@H](C)[C@H](C)[C@H]1C1=CC[C@@H]3[C@@]4(C)CCCNC(C)(C)[C@@H]4CC[C@@]3(C)[C@]1(C)CC2 : 17.2

Sure, the documented growth for CCN1C(=O)N(CC)C2SC(N/N=C/c3ccccc3F)=NC21 (centres undefined) is 37.6

Short answer for CC(C)=CCC[C@](C)(O)[C@H]1CC[C@]2(C)[C@@H]1CC[C@@H]1[C@@]3(C)CCC(NC(=O)c4ccccc4C(=O)O)C(C)(C)[C@@H]3CC[C@]12C (some centres undefined) : growth was 28.7

Data point: COc1cc(/C=C2\SC(=O)NC2=O)ccc1OCC(=O)Nc1ccc(C(=O)/C=C/c2cc3ccccc3nc2Cl)cc1 ; growth = 84.3

Per the records, this molecule ( COc1ccc2c(c1)c(-c1nn3c(=O)cc(-c4ccccc4)nc3s1)cn2C ) has growth equal to 24.2

# growth (molecule: O=C1NC(=O)/C(=C/c2ccc(OCc3cc4ccccc4nc3Cl)cc2)S1 ) is 83.7
